Each item that follows carries a reported MIC.
Test system: Klebsiella pneumoniae
assay: Antibacterial activity against Klebsiella pneumoniae GN69 by agar dilution method
Format: functional
Supply the numeric figure in µg/mL, leaving out any unit text.

INSERT INTO assay_data (smilesstructure, experimentalvalue) VALUES
  ('C[C@@H](O)[C@H]1C(=O)N2C(C(=O)[O-])=C(c3cn4cnc(C(=O)c5ccc[n+](CC(N)=O)c5)c4s3)[C@H](C)[C@H]12', 0.063),
  ('C[C@@H](O)[C@H]1C(=O)N2C(C(=O)[O-])=C(c3cn4cnc(C(=O)c5ccc[n+](CC(=O)O)c5)c4s3)[C@H](C)[C@H]12', 0.063),
  ('CSc1c2sc(C3=C(C(=O)[O-])N4C(=O)[C@H]([C@@H](C)O)[C@H]4[C@H]3C)cn2c[n+]1CC(N)=O', 0.031),
  ('CSc1nc(C(=O)c2ccc[n+](CC(N)=O)c2)c2sc(C3=C(C(=O)[O-])N4C(=O)[C@H]([C@@H](C)O)[C@H]4[C@H]3C)cn12', 4);

// switching to the query molecule
Please provide the recorded MIC for "CCOC(=O)C[n+]1cccc(C(=O)c2ncn3cc(C4=C(C(=O)[O-])N5C(=O)[C@H]([C@@H](C)O)[C@H]5[C@H]4C)sc23)c1" , tested on Klebsiella pneumoniae. 0.063

----------
Tested on: Staphylococcus aureus
assay: Antibacterial activity against carbapenem and methicillin-resistant Staphylococcus aureus M126HR by agar dilution method
Format: functional
Each item that follows carries a reported MIC.
Supply the numeric figure in µg/mL, leaving out any unit text.

Some compounds with known MIC results, for comparison:
INSERT INTO results (smilesstructure, observationtype, experimentalvalue) VALUES
  ('C[C@@H](O)[C@H]1C(=O)N2C(C(=O)O)=C(c3cn4cnc(C(=O)[C@@H]5C[C@@H](O)CN5)c4s3)[C@H](C)[C@H]12', 'MIC', 4),
  ('C[C@@H](O)[C@H]1C(=O)N2C(C(=O)O)=C(c3cn4cnc(C(=O)c5cn(C)c6ccccc56)c4s3)[C@H](C)[C@H]12', 'MIC', 8);

// switching to the query compound
Could you share which MIC value was measured for "C[C@@H](O)[C@H]1C(=O)N2C(C(=O)O)=C(c3cn4cnc(C(=O)c5cccs5)c4s3)[C@H](C)[C@H]12" ? 4

----------
Tested on: Klebsiella pneumoniae
assay: Antibacterial activity against Klebsiella pneumoniae GN69 by agar dilution method
Type: functional
Each item that follows carries a reported MIC.
Supply the numeric figure in µg/mL, leaving out any unit text.

Some compounds with known MIC results, for comparison:
INSERT INTO assay_data (smilesstructure, unitslabel, experimentalvalue) VALUES
  ('C[C@@H](O)[C@H]1C(=O)N2C(C(=O)[O-])=C(c3cn4c(Cl)nc(C(=O)c5ccc[n+](CC(N)=O)c5)c4s3)[C@H](C)[C@H]12', 'µg/mL', 2),
  ('Cc1nc(C(=O)c2ccc[n+](CC(N)=O)c2)c2sc(C3=C(C(=O)[O-])N4C(=O)[C@H]([C@@H](C)O)[C@H]4[C@H]3C)cn12', 'µg/mL', 0.5);

// switching to the query compound
Could you share which MIC value was measured for "C[C@@H](O)[C@H]1C(=O)N2C(C(=O)[O-])=C(c3cn4c(C5CC5)nc(C(=O)c5ccc[n+](CC(N)=O)c5)c4s3)[C@H](C)[C@H]12" ? 4
